Biological target: Syk kinase (Homo sapiens)
Construct: purchased
Experiment: Syk kinase inhibition, Caliper LabChip off-chip mobility-shift kinase assay
Assay type: biochemical
Conditions: read-out: Syk Enzyme IC50
measured_metric: IC50 (nM)

Below, each entry is followed by its recorded IC50 result.
                            molecule_smiles  measured_metric  units  result_number
0  CCN1CCN(CCc2ccc(Nc3nc(-c4cnn(CC(C)C)c4)cc4c(F)c[nH]c(=O)c34)cc2)CC1             IC50     nM            300
1  [2H]C([2H])([2H])n1ccc2cc(Nc3cnccn3)nc(NC(C)(C)C)c2c1=O             IC50     nM             97
2    CC(C)Nc1nc(Nc2cnccn2)cc2ccn(C)c(=O)c12             IC50     nM             57

P = Cc1ccnc(Nc2cc3ccn(C)c(=O)c3c(N[C@H]3CC[C@@H](O)CC3)n2)c1
Q = CCN1CCN(CCc2ccc(Nc3nc(-c4cnn(C)c4)cc4c(F)c[nH]c(=O)c34)cc2)CC1
R = COc1ccc(Nc2nc(Nc3cc(C)ccn3)cc3cc[nH]c(=O)c23)cc1OC
# input Sort (3 compounds) by IC50: min first. Write the labels, ordered according to the request.
# output P, Q, R

I = CCn1ccc2cc(Nc3cc(C)ccn3)nc(NC[C@@H]3CC[C@](C)(O)C3)c2c1=O
II = CN(C)CCn1ccc2cc(Nc3cnccn3)nc(N[C@H]3CC[C@@H](O)CC3)c2c1=O
# input Min IC50? I | II # respond with the chosen item's label
# output II
(II: 33 nM, I: 287 nM)
